From: patent EP4656642A1

- TARGET_UNDER_TEST: ERα (Homo sapiens, UniProt P03372)
- Sequence (P03372 whole entry): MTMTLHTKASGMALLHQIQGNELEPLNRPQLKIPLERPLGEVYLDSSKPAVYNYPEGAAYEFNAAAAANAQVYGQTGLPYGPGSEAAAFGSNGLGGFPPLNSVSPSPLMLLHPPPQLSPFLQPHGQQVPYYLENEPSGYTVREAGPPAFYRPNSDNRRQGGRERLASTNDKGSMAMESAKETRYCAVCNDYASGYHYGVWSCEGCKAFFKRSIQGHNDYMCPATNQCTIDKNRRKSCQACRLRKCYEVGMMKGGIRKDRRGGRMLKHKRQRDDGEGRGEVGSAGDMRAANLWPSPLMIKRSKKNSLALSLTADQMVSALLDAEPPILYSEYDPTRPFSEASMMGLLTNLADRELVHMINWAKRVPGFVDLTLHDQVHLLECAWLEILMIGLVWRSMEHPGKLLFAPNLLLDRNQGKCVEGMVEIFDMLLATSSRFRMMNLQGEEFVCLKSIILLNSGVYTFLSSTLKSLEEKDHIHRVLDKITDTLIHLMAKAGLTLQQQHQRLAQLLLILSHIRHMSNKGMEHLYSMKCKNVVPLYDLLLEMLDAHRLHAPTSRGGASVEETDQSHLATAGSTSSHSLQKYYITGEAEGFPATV
- ASSAY_NAME: Degradation of ERα in MCF-7 cells (immunoblotting, 4 h)
- Assay type: cell-based
- CONDITION_CONTEXT: 1nM compound
- Protocol: MCF-7 cells were inoculated into 6-well plates at a density of 3×10^5 cells/well and cultured at 37°C, 5% CO2 for 24h. […] Protein immunoblotting: The total protein concentration in the collected cell lysate supernatant was determined by BCA Protein Concentration Assay Kit (Enhanced) (P0009, Beyotime). […] Protein profiles were analyzed by Image Studio Lite analysis software for grayscale values. […]
QUANTITY_NAME: Degradation rate (%) of ERα in MCF-7 cells
One number for each entry, in %.

Example results:
MOLECULE	REPORTED
O=C1CCC(N2Cc3c(ccc4c3OCC43CCN([C@@H]4CCN(CC5CCN(c6ccc([C@@H]7c8ccc(O)cc8CC[C@@H]7c7ccccc7)cc6)CC5)C[C@@H]4F)CC3)C2=O)C(=O)N1 (some centres unmarked) [J6]	52
O=C1CCC(N2Cc3c(ccc4c3OCC43CCN(C4CCN(C(=O)C5CCN(c6ccc([C@@H]7c8ccc(O)cc8CC[C@@H]7c7ccccc7)cc6)CC5)[C@@H](C(=O)N5CC(F)(F)C5)C4)CC3)C2=O)C(=O)N1 (some centres unmarked) [C4]	38
C[C@@H]1Cc2cc(O)ccc2[C@@H](c2c(F)cc(N3CCC(C(=O)N4CCC(N5CCC6(CC5)COc5c6ccc6c5CN(C5CCC(=O)NC5=O)C6=O)CC4)CC3)cc2F)N1CC(F)F (some centres unmarked) [I2]	63
C[C@@H]1Cc2cc(O)ccc2C(c2c(F)cc(N3CCC4(CCN(CC(=O)N5CCC6(CC5)COc5c6ccc6c5CN(C5CCC(=O)NC5=O)C6=O)C4)CC3)cc2F)N1CC(F)F (some centres unmarked) [F8]	63

Okay, next one:
Request: For the molecule C[C@@H]1CC2(CCN(c3ccc([C@@H]4c5ccc(O)cc5CC[C@@H]4c4ccccc4)cc3)CC2)CN1CC(=O)N1CCC2(CC1)COc1c2ccc2c1CN(C1CCC(=O)NC1=O)C2=O (some centres unmarked) [A90] , report Degradation rate (%) of ERα in MCF-7 cells.
Response: 50

====

- System: VCaP cells
- ASSAY_NAME: Inhibition of proliferation of VCaP cells (WST-8, 168 hours)
- Type: cell-based
- CONDITION_CONTEXT: VCaP cells, 168 hours, WST-8
QUANTITY_NAME: IC50 (nM)
Answers are plain numbers, in nM.

Example results:
MOLECULE	UNITS	IC50
COc1cc(O[C@H]2C(C)(C)[C@H](NC(=O)c3ccc(N4CCC(CN5CCC6(CC5)COc5c6ccc6c5C(=O)N(C5CCC(=O)NC5=O)C6)CC4)cc3)C2(C)C)ccc1C#N (relative stereo)	nM	1
COc1cc(O[C@H]2CC[C@H](NC(=O)c3ccc(N4CCC(F)(CN5CCC6(CC5)COc5c6ccc6c5C(=O)N(C5CCC(=O)NC5=O)C6)CC4)nn3)CC2)ccc1C#N (relative stereo)	nM	2
COc1cc(O[C@H]2CC[C@H](NC(=O)c3ccc(N4CCC(C)(CN5CCC6(CC5)COc5c6ccc6c5C(=O)N(C5CCC(=O)NC5=O)C6)CC4)nn3)CC2)ccc1C#N (relative stereo)	nM	12

Hi there! I need IC50 for each item below, if you can.
1. C[C@H]1CC2(CCN(c3ccc(N4CCC(CN5CCC6(CC5)COc5c6ccc6c5C(=O)N(C5CCC(=O)NC5=O)C6)CC4)cc3)CC2)CN1c1ccc(C#N)c(Cl)c1 (stereo partly shown)
2. N#Cc1ccc(O[C@H]2CC[C@H](NC(=O)c3ccc(N4CCC(F)(CN5CCC6(CC5)COc5c6ccc6c5C(=O)N(C5CCC(=O)NC5=O)C6)CC4)nn3)CC2)cc1Cl (relative stereo)
3. CC1(CN2CCC3(CC2)COc2c3ccc3c2C(=O)N(C2CCC(=O)NC2=O)C3)CCN(c2ccc(C(=O)N[C@H]3CC[C@H](Oc4ccc(C#N)c(Cl)c4)CC3)nn2)CC1 (relative stereo)
4. COc1cc(O[C@H]2C(C)(C)[C@H](NC(=O)c3ccc(N4CCC(C)(CN5CCC6(CC5)COc5c6ccc6c5C(=O)N(C5CCC(=O)NC5=O)C6)CC4)cc3)C2(C)C)ccc1C#N (relative stereo)

Response:
1. 36
2. 7
3. 11
4. 3

Hi there! I need IC50 for each item below, if you can.
1. COC1(CN2CCC3(CC2)COc2c3ccc3c2C(=O)N(C2CCC(=O)NC2=O)C3)CCN(c2ccc(C(=O)N[C@H]3CC[C@H](Oc4ccc(C#N)c(Cl)c4)CC3)nn2)CC1 (relative stereo)
2. COc1cc(O[C@H]2CC[C@H](NC(=O)c3ccc(N4CCC(CN5CCC6(CC5)COc5c6ccc6c5C(=O)N(C5CCC(=O)NC5=O)C6)(OC)CC4)nn3)CC2)ccc1C#N (relative stereo)
3. COc1cc(O[C@H]2C(C)(C)[C@H](NC(=O)c3ccc(N4CCC(CN5CCC6(CC5)COc5c6ccc6c5C(=O)N(C5CCC(=O)NC5=O)C6)(OC)CC4)cc3)C2(C)C)ccc1C#N (relative stereo)

Response:
[11, 3, 5]
